These entries and their values trace back to patent US9073912B2.

- System: Ctenocephalides felis
- TEST PROTOCOL: Flea (Ctenocephalides felis) Membrane Feed Assay-Adult
- MEASUREMENT SETUP: assessed at 24 hours, 10-flea sample
Task for the reader: assign each of the following compounds its reported minimum effective concentration (MEC).
Give bare numbers, in µM.

>>> value_observed("CC(C)C(=O)N1CC(F)(c2ccc(C3=NOC(c4cc(Cl)c(F)c(Cl)c4)(C(F)(F)F)O3)cc2)C1 (stereo not shown)")
30
>>> value_observed("CS(=O)(=O)CC(=O)N1CC(F)(c2ccc(C3=NCC(c4cc(Cl)c(Cl)c(Cl)c4)(C(F)(F)F)C3)cc2)C1 (stereo not shown)")
1
>>> value_observed("CS(=O)(=O)CC(=O)N1CC(F)(c2ccc(C3=NCC(c4cc(Cl)c(F)c(Cl)c4)(C(F)(F)F)C3)cc2)C1 (stereo not shown)")
1

For every item in the list below, what is its measured minimum effective concentration (MEC)?
1. CS(=O)(=O)CC(=O)N1CC(F)(c2ccc(C3=NNC(c4cc(Cl)c(F)c(Cl)c4)(C(F)(F)F)C3)cc2)C1 (stereo not shown)
2. CC(C)C(=O)N1CC(F)(c2ccc(C3=NCC(c4cc(Cl)cc(Cl)c4)(C(F)(F)F)C3)cc2)C1 (stereo not shown)
3. CS(=O)(=O)CC(=O)N1CC(F)(c2ccc(C3=NCC(c4cc(Cl)cc(Cl)c4)(C(F)(F)F)C3)cc2)C1 (stereo not shown)
4. CC(C)C(=O)N1CC(F)(c2ccc(C3=NCC(c4cc(Cl)c(F)c(Cl)c4)(C(F)(F)F)C3)cc2)C1 (stereo not shown)

30
1
3
1
